Property: AUC %; scope: individual binders
- TGT: T1, human TNFR2 on the cell surface (CHO-TNFR2 cells; human Treg cells) (human, UniProt P20333 23-461)
- T1 construct: whole, on cells; The assay field of each row says which cells; also called TNFR2-CHO cell; TNFR2 on Treg cells
- T1 sequence (looked up): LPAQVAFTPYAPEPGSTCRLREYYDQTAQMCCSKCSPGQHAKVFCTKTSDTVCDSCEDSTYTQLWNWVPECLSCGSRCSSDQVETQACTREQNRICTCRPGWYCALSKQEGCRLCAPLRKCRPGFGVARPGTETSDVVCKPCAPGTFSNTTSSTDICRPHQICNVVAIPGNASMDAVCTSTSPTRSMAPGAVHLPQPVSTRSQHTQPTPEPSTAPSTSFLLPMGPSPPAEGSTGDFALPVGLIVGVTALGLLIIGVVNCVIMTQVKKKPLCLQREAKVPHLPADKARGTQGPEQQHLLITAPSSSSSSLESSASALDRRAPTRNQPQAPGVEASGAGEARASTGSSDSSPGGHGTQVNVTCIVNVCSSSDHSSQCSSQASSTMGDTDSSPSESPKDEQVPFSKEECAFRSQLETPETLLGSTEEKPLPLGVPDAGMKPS
- METHOD SUMMARY: flow cytometry, blocking of TNFα-biotin on CHO-TNFR2 cells; AUC for 002# / AUC for antibody x 100
The response must be a number in % with no trailing unit.

[
  {
    "BINDER": "TNFR2 antibody #365 (antibody, V domains shown) VH: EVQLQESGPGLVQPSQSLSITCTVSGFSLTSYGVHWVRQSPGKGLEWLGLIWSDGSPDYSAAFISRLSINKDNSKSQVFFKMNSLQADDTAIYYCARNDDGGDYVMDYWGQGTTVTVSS VL: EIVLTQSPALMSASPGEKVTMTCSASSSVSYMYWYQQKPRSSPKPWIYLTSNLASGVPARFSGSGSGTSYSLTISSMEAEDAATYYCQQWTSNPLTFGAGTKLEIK",
    "AUC % [%]": 117
  }
]

As a next step, examine the binder that follows.
### Prompt Tell us which AUC % value is on record for TNFR2 antibody #219 (antibody, V domains shown) VH: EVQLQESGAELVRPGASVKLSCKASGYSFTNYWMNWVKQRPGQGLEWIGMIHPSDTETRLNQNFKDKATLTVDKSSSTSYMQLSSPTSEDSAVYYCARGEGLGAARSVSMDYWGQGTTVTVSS VL: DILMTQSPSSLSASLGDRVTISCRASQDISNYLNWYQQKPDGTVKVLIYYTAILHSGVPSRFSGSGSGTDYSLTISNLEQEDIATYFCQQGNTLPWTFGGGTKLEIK
### Response 93.7
